- target-system: 5-Lipoxygenase (Homo sapiens, UniProt P09917)
- Sequence (P09917 whole entry, species assumed): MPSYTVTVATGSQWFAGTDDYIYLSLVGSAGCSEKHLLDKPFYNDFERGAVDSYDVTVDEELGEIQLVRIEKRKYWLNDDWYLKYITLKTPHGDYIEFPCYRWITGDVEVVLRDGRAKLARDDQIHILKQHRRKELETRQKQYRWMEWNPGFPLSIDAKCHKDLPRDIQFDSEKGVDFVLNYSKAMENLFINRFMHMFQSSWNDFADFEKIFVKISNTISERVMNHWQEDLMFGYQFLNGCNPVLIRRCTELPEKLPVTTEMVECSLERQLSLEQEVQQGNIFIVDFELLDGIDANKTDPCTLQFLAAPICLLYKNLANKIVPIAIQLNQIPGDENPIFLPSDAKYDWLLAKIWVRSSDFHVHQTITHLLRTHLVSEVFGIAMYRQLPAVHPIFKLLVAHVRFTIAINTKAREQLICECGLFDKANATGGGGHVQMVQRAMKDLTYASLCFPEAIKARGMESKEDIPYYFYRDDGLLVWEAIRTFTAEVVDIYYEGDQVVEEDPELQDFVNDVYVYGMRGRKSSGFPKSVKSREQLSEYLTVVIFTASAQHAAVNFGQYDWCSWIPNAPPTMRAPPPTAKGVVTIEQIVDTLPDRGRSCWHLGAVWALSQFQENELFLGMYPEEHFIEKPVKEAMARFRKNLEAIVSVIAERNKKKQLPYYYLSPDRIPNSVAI
- protocol-text: Inhibition of 5-Lipoxygenase activity
- Type: biochemical
- condition-info: Table 2A; read-out: 5-Lipoxygenase, IC50
- Source text: 5-Lipoxygenase has been known to be a key enzyme in the bio-synthesis of leukotrienes, important mediators in inflammatory and allergic processes. […] The experiment was repeated using various concentrations of the compounds.
Record form. Attribute: pIC50. Fill in for each entry.
Expect pIC50 as a plain number equal to -log10 of the molar concentration.

Value (pIC50, 5-Lipoxygenase (Homo sapiens, UniProt P09917)) for record CCC(C)C(=O)O[C@H](CC=C(C)C)C1=CC(=O)c2c(O)ccc(O)c2C1=O (stereo partly drawn) = 5.86

Value (pIC50, 5-Lipoxygenase (Homo sapiens, UniProt P09917)) for record "CC(C)=CC[C@@H](OC(=O)C(C)C)C1=CC(=O)c2c(O)ccc(O)c2C1=O" = 5.81

Value (pIC50, 5-Lipoxygenase (Homo sapiens, UniProt P09917)) for record "CC(C)=CC[C@@H](OC(=O)C=C(C)C)C1=CC(=O)c2c(O)ccc(O)c2C1=O" = 5.92

---

- target-system: 5-Lipoxygenase (Homo sapiens, UniProt P09917)
- protocol-text: Inhibition of 5-Lipoxygenase activity
- Assay type: biochemical
- condition-info: Table 2B; read-out: 5-Lipoxygenase, IC50
metric: pIC50
Expect pIC50 as a plain number equal to -log10 of the molar concentration.

The reported value for Cc1cc(C2CCCCC2)n(O)c(=O)c1 [Ciclpirox Olamine, reference compound] in terms of pIC50 is 4.77

---

Record form. Attribute: IC50. Fill in for each entry.
- target-system: 5-Lipoxygenase (Homo sapiens)
- protocol-text: Inhibition of 5-Lipoxygenase activity
- Type: biochemical
- condition-info: 5-Lipoxygenase, IC50 (μM), Table 2A
Respond numerically; units are µM and should not be typed.

The reported value for "CC(C)=CCCC1=CC(=O)c2c(O)ccc(O)c2C1=O" in terms of IC50 is 7.01

The reported value for "CC(=O)O[C@H](CC=C(C)C)C1=CC(=O)c2c(O)ccc(O)c2C1=O" in terms of IC50 is 1.46

---

- target-system: 5-Lipoxygenase (Homo sapiens, UniProt P09917)
- protocol-text: Inhibition of 5-Lipoxygenase activity
- Type: biochemical
- condition-info: 5-Lipoxygenase, IC50, Table 2B
Record form. Attribute: pIC50. Fill in for each entry.
Expect pIC50 as a plain number equal to -log10 of the molar concentration.

The reported value for "CC(C)=CC[C@@H](O)C1=CC(=O)c2c(O)ccc(O)c2C1=O" in terms of pIC50 is 5.53

The reported value for "CC(C)=CCCC1=CC(=O)c2c(O)ccc(O)c2C1=O" in terms of pIC50 is 4.70

---

Record form. Attribute: Anti-microbial Activity, effective concentration range, MRSA. Fill in for each entry.
- System: methicillin-resistant Staphylococcus aureus (ATCC33591)
- protocol-text: Growth inhibition of methicillin-resistant Staphylococcus aureus (ATCC33591)
- Assay type: cell-based
- condition-info: Table 5; repeated with various concentrations
Respond numerically; units are µM and should not be typed.

The reported value for CC(C)=CC[C@@H](OC(=O)C=C(C)C)C1=CC(=O)c2c(O)ccc(O)c2C1=O [BSK] in terms of Anti-microbial Activity, effective concentration range, MRSA is 2.8

The reported value for CC(C)=CC[C@@H](OC(=O)C(C)C)C1=CC(=O)c2c(O)ccc(O)c2C1=O [ISK] in terms of Anti-microbial Activity, effective concentration range, MRSA is 7.7

The reported value for CCC(C)C(=O)O[C@H](CC=C(C)C)C1=CC(=O)c2c(O)ccc(O)c2C1=O (stereo partly shown) [MBSK] in terms of Anti-microbial Activity, effective concentration range, MRSA is 2.7

The reported value for Cc1cc(C2CCCCC2)n(O)c(=O)c1 [Ciclpirox Olamine, reference compound] in terms of Anti-microbial Activity, effective concentration range, MRSA is 37.3
